abundance fitness values for the variants below.
B1: KAT8 regulatory NSL complex subunit 2, residues 28 to 91; numbered along this chain, Q9H9L4 (parent)
chain: CAFTHRPCSHPRLEGQEFCIKHILEDKNAPFKQCSYISTKNGKRCPNAAPKPEKKDGVSFCAEH

# Variants of: B1
# Experiment description: abundance fitness (aPCA) (normalised: wild type 0, dead -1); higher = more abundant; growth selection in yeast, the domain comes from the species named
# Applied conditions: Homo sapiens

Residue change | abundance fitness
C61W | -0.667
S59E | -0.243
H22D | -0.904
E63M | -0.165
P52I | -0.136
A49I | -0.076
G42R | -0.038
A48Q | -0.238
I37L | -0.044
T39P | -0.207
A62P | -0.065

All values here come from the Human Domainome abundance scans (Beltran et al. 2025).
